B1: CPEB3 Ribozyme (parent)
chain: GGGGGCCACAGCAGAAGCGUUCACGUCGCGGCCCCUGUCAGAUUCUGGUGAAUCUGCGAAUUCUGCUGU

# Variants of: B1
# experiment: self-cleavage, relative activity (ratio to wild type); higher = more cleavage; co-transcriptional
quantity: self-cleavage
// no unit string in output, number only

May I ask what self-cleavage has been recorded for C22U G68U ? 0.51

Please answer likewise for U43C C63U 0.914

Please answer likewise for G56U C57A 0.291

Please answer likewise for G25A U26A 0.186

Please answer likewise for C9G A40C 0.715

Please answer likewise for A10G U26C 0.351

Please answer likewise for G50U A52G 0.976

Please answer likewise for G30C A51U 0.61

Please answer likewise for G19A U36C 0.161

Please answer likewise for U55A A60C 0.343

Please answer likewise for G5U U61G 0.0827

Please answer likewise for G2A C18A 0.0515

Please answer likewise for G5A C18A 0.12

Please answer likewise for G28A C66A 0.189

Please answer likewise for A16U G41U 0.497

Please answer likewise for G2A C39G 0.0948

Please answer likewise for U38G G41A 0.245

Please answer likewise for C22G G48C 0.212

Please answer likewise for A10U A40G 0.951

Please answer likewise for C57A U61A 0.428

Please answer likewise for A10C G25U 0.0666

Please answer likewise for G65U G68U 0.681
